EXPERIMENT_SUMMARY: Fluidity related test (densities, Carr index, Hausner ratio, angle of repose)
Format: physicochemical
MEASURED_PROPERTY: Bulk density (g/mL)

[[record]]
compound = "C[C@@H](O)[C@H]1C(=O)N2C(C(=O)[O-])=C(S[C@@H]3CN[C@H](C(=O)Nc4cccc(C(=O)O)c4)C3)[C@H](C)[C@H]12.[Na+] [Crystal form E, ertapenem sodium]"
measured_property = "Bulk density"
assay_result = 0.66

[[record]]
compound = "C[C@@H](O)[C@H]1C(=O)N2C(C(=O)[O-])=C(S[C@@H]3CN[C@H](C(=O)Nc4cccc(C(=O)O)c4)C3)[C@H](C)[C@H]12.[Na+] [Crystal form A, ertapenem sodium]"
measured_property = "Bulk density"
assay_result = 0.64

[[record]]
compound = "C[C@@H](O)[C@H]1C(=O)N2C(C(=O)[O-])=C(S[C@@H]3CN[C@H](C(=O)Nc4cccc(C(=O)O)c4)C3)[C@H](C)[C@H]12.[Na+] [Amorphous, ertapenem sodium]"
measured_property = "Bulk density"
assay_result = 0.63

[[record]]
compound = "C[C@@H](O)[C@H]1C(=O)N2C(C(=O)[O-])=C(S[C@@H]3CN[C@H](C(=O)Nc4cccc(C(=O)O)c4)C3)[C@H](C)[C@H]12.[Na+] [Crystal form F, ertapenem sodium]"
measured_property = "Bulk density"
assay_result = 0.64

[[record]]
compound = "C[C@@H](O)[C@H]1C(=O)N2C(C(=O)[O-])=C(S[C@@H]3CN[C@H](C(=O)Nc4cccc(C(=O)O)c4)C3)[C@H](C)[C@H]12.[Na+] [Crystal form C, ertapenem sodium]"
measured_property = "Bulk density"
assay_result = 0.63

[[record]]
compound = "C[C@@H](O)[C@H]1C(=O)N2C(C(=O)[O-])=C(S[C@@H]3CN[C@H](C(=O)Nc4cccc(C(=O)O)c4)C3)[C@H](C)[C@H]12.[Na+] [Crystal form B, ertapenem sodium]"
measured_property = "Bulk density"
assay_result = 0.63

[[record]]
compound = "C[C@@H](O)[C@H]1C(=O)N2C(C(=O)[O-])=C(S[C@@H]3CN[C@H](C(=O)Nc4cccc(C(=O)O)c4)C3)[C@H](C)[C@H]12.[Na+] [Crystal form D, ertapenem sodium]"
measured_property = "Bulk density"
assay_result = 0.64


----------
EXPERIMENT_SUMMARY: Fluidity related test (densities, Carr index, Hausner ratio, angle of repose)
Format: physicochemical
MEASURED_PROPERTY: Tap density (g/mL)

[[record]]
compound = "C[C@@H](O)[C@H]1C(=O)N2C(C(=O)[O-])=C(S[C@@H]3CN[C@H](C(=O)Nc4cccc(C(=O)O)c4)C3)[C@H](C)[C@H]12.[Na+] [Crystal form A, ertapenem sodium]"
assay_result = 0.82

[[record]]
compound = "C[C@@H](O)[C@H]1C(=O)N2C(C(=O)[O-])=C(S[C@@H]3CN[C@H](C(=O)Nc4cccc(C(=O)O)c4)C3)[C@H](C)[C@H]12.[Na+] [Crystal form B, ertapenem sodium]"
assay_result = 0.79

[[record]]
compound = "C[C@@H](O)[C@H]1C(=O)N2C(C(=O)[O-])=C(S[C@@H]3CN[C@H](C(=O)Nc4cccc(C(=O)O)c4)C3)[C@H](C)[C@H]12.[Na+] [Crystal form D, ertapenem sodium]"
assay_result = 0.81

[[record]]
compound = "C[C@@H](O)[C@H]1C(=O)N2C(C(=O)[O-])=C(S[C@@H]3CN[C@H](C(=O)Nc4cccc(C(=O)O)c4)C3)[C@H](C)[C@H]12.[Na+] [Crystal form E, ertapenem sodium]"
assay_result = 0.83

[[record]]
compound = "C[C@@H](O)[C@H]1C(=O)N2C(C(=O)[O-])=C(S[C@@H]3CN[C@H](C(=O)Nc4cccc(C(=O)O)c4)C3)[C@H](C)[C@H]12.[Na+] [Amorphous, ertapenem sodium]"
assay_result = 0.79

[[record]]
compound = "C[C@@H](O)[C@H]1C(=O)N2C(C(=O)[O-])=C(S[C@@H]3CN[C@H](C(=O)Nc4cccc(C(=O)O)c4)C3)[C@H](C)[C@H]12.[Na+] [Crystal form C, ertapenem sodium]"
assay_result = 0.78

[[record]]
compound = "C[C@@H](O)[C@H]1C(=O)N2C(C(=O)[O-])=C(S[C@@H]3CN[C@H](C(=O)Nc4cccc(C(=O)O)c4)C3)[C@H](C)[C@H]12.[Na+] [Crystal form F, ertapenem sodium]"
assay_result = 0.71


----------
EXPERIMENT_SUMMARY: Fluidity related test (densities, Carr index, Hausner ratio, angle of repose)
Format: physicochemical
MEASURED_PROPERTY: Carr index (%)

Worked examples follow.
[[record]]
molecule = "C[C@@H](O)[C@H]1C(=O)N2C(C(=O)[O-])=C(S[C@@H]3CN[C@H](C(=O)Nc4cccc(C(=O)O)c4)C3)[C@H](C)[C@H]12.[Na+] [Crystal form C, ertapenem sodium]"
assay_result = 19

[[record]]
molecule = "C[C@@H](O)[C@H]1C(=O)N2C(C(=O)[O-])=C(S[C@@H]3CN[C@H](C(=O)Nc4cccc(C(=O)O)c4)C3)[C@H](C)[C@H]12.[Na+] [Crystal form D, ertapenem sodium]"
assay_result = 21

[[record]]
molecule = "C[C@@H](O)[C@H]1C(=O)N2C(C(=O)[O-])=C(S[C@@H]3CN[C@H](C(=O)Nc4cccc(C(=O)O)c4)C3)[C@H](C)[C@H]12.[Na+] [Crystal form E, ertapenem sodium]"
assay_result = 20

[[record]]
molecule = "C[C@@H](O)[C@H]1C(=O)N2C(C(=O)[O-])=C(S[C@@H]3CN[C@H](C(=O)Nc4cccc(C(=O)O)c4)C3)[C@H](C)[C@H]12.[Na+] [Crystal form B, ertapenem sodium]"
assay_result = 20

[[record]]
molecule = "C[C@@H](O)[C@H]1C(=O)N2C(C(=O)[O-])=C(S[C@@H]3CN[C@H](C(=O)Nc4cccc(C(=O)O)c4)C3)[C@H](C)[C@H]12.[Na+] [Crystal form A, ertapenem sodium]"
assay_result = 22


[I] C[C@@H](O)[C@H]1C(=O)N2C(C(=O)[O-])=C(S[C@@H]3CN[C@H](C(=O)Nc4cccc(C(=O)O)c4)C3)[C@H](C)[C@H]12.[Na+] [Crystal form F, ertapenem sodium]
[II] C[C@@H](O)[C@H]1C(=O)N2C(C(=O)[O-])=C(S[C@@H]3CN[C@H](C(=O)Nc4cccc(C(=O)O)c4)C3)[C@H](C)[C@H]12.[Na+] [Amorphous, ertapenem sodium]
Quick check, higher Carr index between I and II ? // return label of chosen record
II

----------
EXPERIMENT_SUMMARY: Fluidity related test (densities, Carr index, Hausner ratio, angle of repose)
Assay type: physicochemical
MEASURED_PROPERTY: Hausner ratio

[[record]]
compound = "C[C@@H](O)[C@H]1C(=O)N2C(C(=O)[O-])=C(S[C@@H]3CN[C@H](C(=O)Nc4cccc(C(=O)O)c4)C3)[C@H](C)[C@H]12.[Na+] [Crystal form F, ertapenem sodium]"
assay_result = 1.11

[[record]]
compound = "C[C@@H](O)[C@H]1C(=O)N2C(C(=O)[O-])=C(S[C@@H]3CN[C@H](C(=O)Nc4cccc(C(=O)O)c4)C3)[C@H](C)[C@H]12.[Na+] [Amorphous, ertapenem sodium]"
assay_result = 1.25

[[record]]
compound = "C[C@@H](O)[C@H]1C(=O)N2C(C(=O)[O-])=C(S[C@@H]3CN[C@H](C(=O)Nc4cccc(C(=O)O)c4)C3)[C@H](C)[C@H]12.[Na+] [Crystal form C, ertapenem sodium]"
assay_result = 1.24

[[record]]
compound = "C[C@@H](O)[C@H]1C(=O)N2C(C(=O)[O-])=C(S[C@@H]3CN[C@H](C(=O)Nc4cccc(C(=O)O)c4)C3)[C@H](C)[C@H]12.[Na+] [Crystal form A, ertapenem sodium]"
assay_result = 1.28


----------
EXPERIMENT_SUMMARY: Fluidity related test (densities, Carr index, Hausner ratio, angle of repose)
Assay type: physicochemical
MEASURED_PROPERTY: Hausner ratio

[[record]]
compound = "C[C@@H](O)[C@H]1C(=O)N2C(C(=O)[O-])=C(S[C@@H]3CN[C@H](C(=O)Nc4cccc(C(=O)O)c4)C3)[C@H](C)[C@H]12.[Na+] [Crystal form B, ertapenem sodium]"
measured_property = "Hausner ratio"
assay_result = 1.25

[[record]]
compound = "C[C@@H](O)[C@H]1C(=O)N2C(C(=O)[O-])=C(S[C@@H]3CN[C@H](C(=O)Nc4cccc(C(=O)O)c4)C3)[C@H](C)[C@H]12.[Na+] [Crystal form D, ertapenem sodium]"
measured_property = "Hausner ratio"
assay_result = 1.27

[[record]]
compound = "C[C@@H](O)[C@H]1C(=O)N2C(C(=O)[O-])=C(S[C@@H]3CN[C@H](C(=O)Nc4cccc(C(=O)O)c4)C3)[C@H](C)[C@H]12.[Na+] [Crystal form E, ertapenem sodium]"
measured_property = "Hausner ratio"
assay_result = 1.26

